Ref: ChEMBL document CHEMBL3045590

- Tested on: Culex pipiens pallens
- TEST: Larvicidal activity against fourth-instar larval stage of Culex pipiens pallens (mosquito) assessed as mortality at 0.025 mg/l at 25 +/-1 degC after 8 days
- Assay type: functional
- STUDY CONDITIONS: 192 h
VALUE KIND: mortality at 0.025 µg/mL (%)
The response must be a number in % with no trailing unit.

Summary for this compound, `C#CCO/N=C/c1ccc(NC(=O)NC(=O)c2c(F)cccc2F)cc1` : mortality at 0.025 µg/mL is 10

Looking up `O=C(NC(=O)c1c(F)cccc1F)Nc1ccc(/C=N/OC2CCCC2)cc1` , I found its mortality at 0.025 µg/mL recorded as 0

Documented mortality at 0.025 µg/mL of CCC(C)O/N=C/c1ccc(NC(=O)NC(=O)c2c(F)cccc2F)cc1 (configuration not stated) : 100

Looking up `CO/N=C/c1ccc(NC(=O)NC(=O)c2c(F)cccc2F)cc1` , I see its mortality at 0.025 µg/mL listed as 10

Recorded result, `CC(C)CO/N=C/c1ccc(NC(=O)NC(=O)c2c(F)cccc2F)cc1` , mortality at 0.025 µg/mL: 10

Record `O=C(NC(=O)c1c(F)cccc1F)Nc1ccc(/C=N/OC(C(F)(F)F)C(F)(F)F)cc1` . Reported mortality at 0.025 µg/mL: 100

The compound listed as `O=C(NC(=O)c1c(F)cccc1F)Nc1ccc(/C=N/OCCCl)cc1` has a reported mortality at 0.025 µg/mL of 20

Record CCCC(C)O/N=C/c1ccc(NC(=O)NC(=O)c2c(F)cccc2F)cc1 (configuration not stated) . Reported mortality at 0.025 µg/mL: 100

Recorded mortality at 0.025 µg/mL (compound `C=CCO/N=C/c1ccc(NC(=O)NC(=O)c2c(F)cccc2F)cc1` ): 0

Value of measured mortality at 0.025 µg/mL for the entry `O=C(NC(=O)c1c(F)cccc1F)Nc1ccc(/C=N/OCCF)cc1` : 0

// sample `O=C(NC(=O)c1c(F)cccc1F)Nc1ccc(/C=N/OCC(F)(F)F)cc1` , its mortality at 0.025 µg/mL was 100

Recorded result, O=C(NC(=O)c1c(F)cccc1F)Nc1ccc(CO/N=C(/c2ccc(Cl)cc2)C2CC2)cc1 [FLUCYCLOXURON] , mortality at 0.025 µg/mL: 15

Sample `CCCO/N=C/c1ccc(NC(=O)NC(=O)c2c(F)cccc2F)cc1` ; mortality at 0.025 µg/mL observed: 0

Sure, the documented mortality at 0.025 µg/mL for `CCCCO/N=C/c1ccc(NC(=O)NC(=O)c2c(F)cccc2F)cc1` is 0

Per the records, this compound ( `CC(C)O/N=C/c1ccc(NC(=O)NC(=O)c2c(F)cccc2F)cc1` ) has mortality at 0.025 µg/mL equal to 100

For reference, reported mortality at 0.025 µg/mL for `CCO/N=C/c1ccc(NC(=O)NC(=O)c2c(F)cccc2F)cc1` stands at 10

# mortality at 0.025 µg/mL (compound: `CC(C)(C)O/N=C/c1ccc(NC(=O)NC(=O)c2c(F)cccc2F)cc1` ) is 100

----------
- System: Culex pipiens pallens
- TEST: Larvicidal activity against fourth-instar larval stage of Culex pipiens pallens (mosquito) assessed as mortality at 0.5 mg/l at 25 +/-1 degC after 8 days
- Assay type: functional
- STUDY CONDITIONS: 192 h
Record form. Attribute: mortality at 0.5 µg/mL. Fill in for each entry.
Quick note: give the figure in %, leave out the unit.

Measured mortality at 0.5 µg/mL, `O=C(NC(=O)c1c(F)cccc1F)Nc1ccc(/C=N/OC2CCCC2)cc1` : 100

Field mortality at 0.5 µg/mL (entry `O=C(NC(=O)c1c(F)cccc1F)Nc1ccc(/C=N/OCc2ccccc2)cc1` ) reads 100

compound `O=Cc1ccc(NC(=O)NC(=O)c2c(F)cccc2F)cc1` , mortality at 0.5 µg/mL observed: 0

Record `O=C(NC(=O)c1c(F)cccc1F)Nc1ccc(/C=N/OCC2CCCC2)cc1` , field mortality at 0.5 µg/mL: 10

Quick note, mortality at 0.5 µg/mL for `CC(C)O/N=C/c1ccc(NC(=O)NC(=O)c2c(F)cccc2F)cc1` landed at 100

Per the records, this compound ( `O=C(NC(=O)c1c(F)cccc1F)Nc1ccc(/C=N/O)cc1` ) has mortality at 0.5 µg/mL equal to 60

# compound `COCCO/N=C/c1ccc(NC(=O)NC(=O)c2c(F)cccc2F)cc1` ; its mortality at 0.5 µg/mL = 0

Per the record, `CCO/N=C/c1ccc(NC(=O)NC(=O)c2c(F)cccc2F)cc1` has mortality at 0.5 µg/mL of 100

The value of mortality at 0.5 µg/mL measured for the compound `C[Si](C)(C)O/N=C/c1ccc(NC(=O)NC(=O)c2c(F)cccc2F)cc1` turned out to be 100

mortality at 0.5 µg/mL measured on `CCCCO/N=C/c1ccc(NC(=O)NC(=O)c2c(F)cccc2F)cc1` = 100

Item: `C=CCO/N=C/c1ccc(NC(=O)NC(=O)c2c(F)cccc2F)cc1` | mortality at 0.5 µg/mL: 100

The compound identified as `CC(C)CO/N=C/c1ccc(NC(=O)NC(=O)c2c(F)cccc2F)cc1` registered its mortality at 0.5 µg/mL at 100

Record summary for `O=C(NC(=O)c1c(F)cccc1F)Nc1ccc(/C=N/OCCF)cc1` : reported mortality at 0.5 µg/mL = 100

Entry `CCCO/N=C/c1ccc(NC(=O)NC(=O)c2c(F)cccc2F)cc1` — recorded mortality at 0.5 µg/mL = 100

Entry `C#CCO/N=C/c1ccc(NC(=O)NC(=O)c2c(F)cccc2F)cc1` ; mortality at 0.5 µg/mL = 100

// mortality at 0.5 µg/mL value for `CO/N=C/c1ccc(NC(=O)NC(=O)c2c(F)cccc2F)cc1` : 100

mortality at 0.5 µg/mL reading for `CCCCCO/N=C/c1ccc(NC(=O)NC(=O)c2c(F)cccc2F)cc1` : 90

Sure, the documented mortality at 0.5 µg/mL for `O=C(NC(=O)c1c(F)cccc1F)Nc1ccc(/C=N/OCCCl)cc1` is 100

For record `COC(=O)CO/N=C/c1ccc(NC(=O)NC(=O)c2c(F)cccc2F)cc1` the listed mortality at 0.5 µg/mL is 100

----------
- Test system: Cucumis sativus
- TEST: Growth regulation of Cucumis sativus (cucumber) seeds assessed as stimulation of radicle growth at 10 mg/l at 26 degC after 5 days
- Type: functional
Binary call on Activity with cut-off 60%: strictly below means True, and equality or higher means False.

**Query** Please check: Activity for `CCO/N=C/c1ccc(NC(=O)NC(=O)c2c(F)cccc2F)cc1` , strictly under 60% or not?
**Result** True

**Query** Answer whether the compound `COCCO/N=C/c1ccc(NC(=O)NC(=O)c2c(F)cccc2F)cc1` has Activity strictly less than 60%
**Result** True

**Query** Please let me know if `CCCCO/N=C/c1ccc(NC(=O)NC(=O)c2c(F)cccc2F)cc1` shows Activity below 60%.
**Result** True

**Query** Activity under 60%? Item: `CC(C)CO/N=C/c1ccc(NC(=O)NC(=O)c2c(F)cccc2F)cc1`
**Result** True

**Query** Please let me know if `O=C(NC(=O)c1c(F)cccc1F)Nc1ccc(/C=N/OCCCl)cc1` shows Activity below 60%.
**Result** False

**Query** Please check: Activity for `CO/N=C/c1ccc(NC(=O)NC(=O)c2c(F)cccc2F)cc1` , strictly under 60% or not?
**Result** True

**Query** Given the entry `C=CCO/N=C/c1ccc(NC(=O)NC(=O)c2c(F)cccc2F)cc1` , would its reported Activity be below 60%?
**Result** False

**Query** Answer whether the compound CCCC(C)O/N=C/c1ccc(NC(=O)NC(=O)c2c(F)cccc2F)cc1 (stereo not drawn) has Activity strictly less than 60%
**Result** True

**Query** Field: below-cutoff. Rule: recorded Activity strictly less than 60%. Subject: `O=C(NC(=O)c1c(F)cccc1F)Nc1ccc(/C=N/OCCF)cc1`
**Result** False

**Query** Just wondering, is Activity of `O=C(NC(=O)c1c(F)cccc1F)Nc1ccc(/C=N/OC2CCCC2)cc1` below 60%?
**Result** False

**Query** In the record for `CCCCCO/N=C/c1ccc(NC(=O)NC(=O)c2c(F)cccc2F)cc1` , is Activity less than 60%?
**Result** True

**Query** Here's an entry: `CC(C)O/N=C/c1ccc(NC(=O)NC(=O)c2c(F)cccc2F)cc1` . Is its Activity below 60%?
**Result** True

----------
Provide the reported mortality at 10 µg/mL of each item.
- Tested on: Mythimna separata
- TEST: Larvicidal activity against fourth-instar larval stage of Mythimna separata (Oriental armyworm) in compound-pretreated corn leaves assessed as mortality at 10 mg/l at 25 +/-1 degC after 4 days
- Assay type: functional
Field format: number, assumed %, no unit text.

// `CCCCCO/N=C/c1ccc(NC(=O)NC(=O)c2c(F)cccc2F)cc1` : mortality at 10 µg/mL value = 0

# mortality at 10 µg/mL of O=C(NC(=O)c1c(F)cccc1F)Nc1ccc(CO/N=C(/c2ccc(Cl)cc2)C2CC2)cc1 [FLUCYCLOXURON] = 95

Input `C#CCO/N=C/c1ccc(NC(=O)NC(=O)c2c(F)cccc2F)cc1` . Output mortality at 10 µg/mL: 55

// mortality at 10 µg/mL value for CCCC(C)O/N=C/c1ccc(NC(=O)NC(=O)c2c(F)cccc2F)cc1 (stereo unspecified) : 20

mortality at 10 µg/mL measured on `O=C(NC(=O)c1c(F)cccc1F)Nc1ccc(/C=N/OCCCl)cc1` = 100

Per the records, this molecule ( CCC(C)O/N=C/c1ccc(NC(=O)NC(=O)c2c(F)cccc2F)cc1 (stereo unspecified) ) has mortality at 10 µg/mL equal to 80

Noted for `O=C(NC(=O)c1c(F)cccc1F)Nc1ccc(/C=N/OCC(F)(F)F)cc1` : its mortality at 10 µg/mL reads 100

Per the records, this molecule ( `O=C(NC(=O)c1c(F)cccc1F)Nc1ccc(/C=N/OCCF)cc1` ) has mortality at 10 µg/mL equal to 20

Per the record, `COC(=O)CO/N=C/c1ccc(NC(=O)NC(=O)c2c(F)cccc2F)cc1` has mortality at 10 µg/mL of 10

The recorded mortality at 10 µg/mL for `CC(C)(C)O/N=C/c1ccc(NC(=O)NC(=O)c2c(F)cccc2F)cc1` is 100

Entry under test: `O=C(NC(=O)c1c(F)cccc1F)Nc1ccc(/C=N/OCC2CC2)cc1` . Its mortality at 10 µg/mL was 100

Summary for this molecule, `O=C(NC(=O)c1c(F)cccc1F)Nc1ccc(/C=N/OCC2CCCC2)cc1` : mortality at 10 µg/mL is 0

Quick note, mortality at 10 µg/mL for `C=CCO/N=C/c1ccc(NC(=O)NC(=O)c2c(F)cccc2F)cc1` landed at 0

Measured mortality at 10 µg/mL, `CCO/N=C/c1ccc(NC(=O)NC(=O)c2c(F)cccc2F)cc1` : 10

CC1CCC(C(C)C)C(O/N=C/c2ccc(NC(=O)NC(=O)c3c(F)cccc3F)cc2)C1 (stereo unspecified) has a reported mortality at 10 µg/mL of 100

Memo: `O=C(NC(=O)c1c(F)cccc1F)Nc1ccc(/C=N/OC(C(F)(F)F)C(F)(F)F)cc1` , reported mortality at 10 µg/mL: 100
